Task for the reader: assign each of the following binders its reported EC50.
Target: T1, human CCR8 (human, UniProt P51685 1-355)
T1 construct: Full-length human CCR8 stably expressed on CHO or HEK293 cells; also endogenous on HuT78 cells in one ADCC assay; also called hCCR8; CHO-hCCR8
T1 sequence (P51685 whole entry): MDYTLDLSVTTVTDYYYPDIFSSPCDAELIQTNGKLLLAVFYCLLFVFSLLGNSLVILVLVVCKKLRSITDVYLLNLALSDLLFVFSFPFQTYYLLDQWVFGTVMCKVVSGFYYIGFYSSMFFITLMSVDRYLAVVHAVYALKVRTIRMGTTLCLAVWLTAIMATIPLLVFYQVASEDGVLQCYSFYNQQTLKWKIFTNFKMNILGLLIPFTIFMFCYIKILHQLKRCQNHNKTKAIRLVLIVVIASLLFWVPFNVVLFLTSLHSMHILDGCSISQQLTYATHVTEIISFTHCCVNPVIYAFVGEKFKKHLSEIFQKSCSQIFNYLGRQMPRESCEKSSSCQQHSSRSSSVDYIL
Experiment: flow cytometry, purified Fab on CHO-hCCR8 cells
One number for each entry, in nM.

Observe how each entry below is paired with its result.
# binder, readout.units, EC50
rows = [
    ("144D2 M56A (Fab, V domains shown, Purified Fab mutant) VH: EVQLVESGGGLVQPKGSLKLSCAASGFTFNAFAMNWVRQAPGKGLEWVARIRSKSNNYATYYADSVIDRFTISRDDSQSMLYLQMNNLKTEDTAMYYCVRGKEAGAYYAMDYWGQGTSVTVSS VL: DIVMTQAAPSVPVTPGESVSISCRSSKSLLHSNGNTYLYWFLQRPGQSPQLLIYRASNLASGVPDRFSGSGSGTAFTLRISRVEAEDVGVYYCMQHLEYPLTFGAGTKLEIK", "nM", 4.71),
    ("144D2 M56T (Fab, V domains shown, Purified Fab mutant) VH: EVQLVESGGGLVQPKGSLKLSCAASGFTFNAFAMNWVRQAPGKGLEWVARIRSKSNNYATYYADSVIDRFTISRDDSQSMLYLQMNNLKTEDTAMYYCVRGKEAGAYYAMDYWGQGTSVTVSS VL: DIVMTQAAPSVPVTPGESVSISCRSSKSLLHSNGNTYLYWFLQRPGQSPQLLIYRTSNLASGVPDRFSGSGSGTAFTLRISRVEAEDVGVYYCMQHLEYPLTFGAGTKLEIK", "nM", 2.69),
]

Next binder, EC50 to be filled in.
INPUT: Param item = 144D2 N33I (Fab, V domains shown, Purified Fab mutant) VH: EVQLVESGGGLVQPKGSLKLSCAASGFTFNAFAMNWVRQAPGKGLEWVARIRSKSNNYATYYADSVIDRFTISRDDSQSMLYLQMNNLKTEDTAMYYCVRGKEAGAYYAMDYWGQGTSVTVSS VL: DIVMTQAAPSVPVTPGESVSISCRSSKSLLHSIGNTYLYWFLQRPGQSPQLLIYRMSNLASGVPDRFSGSGSGTAFTLRISRVEAEDVGVYYCMQHLEYPLTFGAGTKLEIK ; retrieve measured EC50.
OUTPUT: 6.68
